Experiment: Animal pharmacokinetic studies in rats
Type: in vivo
Conditions: rat, po; male rats, 5 mg/kg single intragastric administration, plasma; read-out: Cmax
measured.property: Cmax (ng/mL)
Give a bare numeral; the unit ng/mL is implied.

Consider the following illustrative entries.
- chemical.smiles: "CN1CCN(C2CCN(c3ccc(Nc4ncc5cc(C6CC6)n(-c6cccc(C(C)(C)O)n6)c5n4)cc3)CC2)CC1"
  Cmax, ng/mL: 116
- chemical.smiles: "CN1CCN(c2ccc(Nc3ncc4c(F)c(C5CC5)n(-c5cccc(C(C)(C)O)n5)c4n3)cc2)CC1"
  Cmax, ng/mL: 68
- chemical.smiles: "CN1CCN(C2CCN(c3ccc(Nc4ncc5cc(C6CC6)n(-c6cccc(C(C)(C)O)n6)c5n4)cc3F)CC2)CC1"
  Cmax, ng/mL: 98

For the next question, use this molecule.
// Cmax lookup, key: `Cc1cc2cnc(Nc3ccc(N4CCC(N5CCN(C)CC5)CC4)cc3)nc2n1-c1cccc(C(C)(C)O)n1` 64
